# Tested on: CAL-51
# assay.text: normalised viability (% of control), CellTiter-Blue; higher = more viable cells (about 100 = DMSO control)
# measurement.context: 100 nM; incubation time: 72 h
recorded.metric: normalised viability

Sample answers from the record:
>>> df
                                   compound       recorded_metric  result
0  c1ccc(C2CN3CCSC3=N2)cc1 (stereo not given)  normalised viability   89.6%
1  COC(=O)C[C@](O)(CCCC(C)(C)O)C(=O)O[C@@H]1C(OC)=C[C@]23CCCN2CCc2cc4c(cc2[C@H]13)OCO4 [Omacetaxine mepesuccinate]  normalised viability   11.8%
2     COc1c(C)cnc(Cn2cnc3c(Cl)nc(N)nc32)c1C  normalised viability    101%
3  C#Cc1cccc(Nc2ncnc3cc(OC)c(OCCCCCCC(=O)NO)cc23)c1  normalised viability    105%

Shifting focus to the compound that follows.
With CAL-51 as the test system, `COC1=CC(c2cc3ccccc3[nH]2)=N/C1=C\c1[nH]c(C)cc1C` showed normalised viability of 101%

====

# Test system: SK-BR-3
# assay.text: drug sensitivity score (DSS), CellTiter-Glo (DSS (AUC-based score)); higher = stronger drug effect (viability inhibition or cytotoxicity); extreme values may be limits of the assay
# measurement.context: incubation time: 72 h
recorded.metric: drug sensitivity score
Lab note: write the figure by itself, no unit.

In [3]: df
Out[3]:
                                item_smiles  result_number
0  COc1ccc(C2=N[C@@H](c3ccc(Cl)cc3)[C@@H](c3ccc(Cl)cc3)N2C(=O)N2CCNC(=O)C2)c(OC(C)C)c1              0
1  CCS(=O)(=O)c1cccc(-c2cc(C(=O)NC3CCN(C)CC3)c(C)c3[nH]c4ncc(C)cc4c23)c1              0

Consider now this further molecule.
The molecule listed as `O=c1[nH]c(=O)n([C@H]2C[C@H](O)[C@@H](CO)O2)cc1F` shows drug sensitivity score equal to 12

====

# System: CAL-85-1
# assay.text: normalised viability (% of control), CellTiter-Blue; higher = more viable cells (100 = DMSO, 0 = benzethonium chloride kill control)
# measurement.context: incubation time: 72 h
# strict inequality: normalised viability < 90% yields 1 (yes), everything else yields 0 (no)

Consider the worked cases shown below.
compound	label.value
O=c1[nH]cc(F)c(=O)[nH]1 [Fluorouracil] (1 nM)	0 (no)
O=P(O)(NCCCl)NCCCl [Ifosfamide mustard] (1 nM)	1 (yes)
COC1=C2C[C@@H](C)C[C@H](OC)[C@H](O)[C@@H](C)/C=C(\C)[C@H](OC(N)=O)[C@@H](OC)/C=C\C=C(/C)C(=O)NC(=CC1=O)C2=O [Geldanamycin] (1 nM)	0 (no)
CN1CCN(c2ccc3nc(-c4c(N)c5c(F)cccc5[nH]c4=O)[nH]c3c2)CC1 [Dovitinib] (1 nM)	1 (yes)
COc1c(C)cnc(Cn2cnc3c(Cl)nc(N)nc32)c1C [BIIB021] (1 nM)	1 (yes)

*Q* Is normalised viability of COC1=CC(c2cc3ccccc3[nH]2)=N/C1=C\c1[nH]c(C)cc1C [Obatoclax] (1 nM) strictly below 90%?
*A* 1 (yes)

*Q* Dear reviewer, please state whether C[C@@]1(C(=O)Nc2ccc(F)nc2)CCCN1c1nc(Nc2cc(C3CC3)n[nH]2)c2cccn2n1 (1 nM) has normalised viability strictly beneath 90%.
*A* 0 (no)

*Q* Confirm or reject: normalised viability of C#Cc1cccc(Nc2ncnc3cc(OC)c(OCCCCCCC(=O)NO)cc23)c1 [CUDC-101] (1 nM) lies strictly below 90%
*A* 1 (yes)
